# System: HL-60(TB) leukemia
# TEST NAME: NCI tumour cell line growth inhibition, 48 h; in the data active means GI50 below about 0.43 µM; inactive means the rest
Possible outcomes: YES for active, NO for inactive

>  <COMPOUND>
N=c1n(Cc2ccccc2)c(N)cc(=O)n1Cc1ccccc1

>  <CLASSIFICATION>
NO

$$$$
>  <COMPOUND>
NC1=CC(=O)c2nc3ccccc3c3ccnc1c23

>  <CLASSIFICATION>
NO

$$$$
>  <COMPOUND>
CCN(CC)CCCCNc1ncc2cc(-c3cc(OC)cc(OC)c3)c(NC(=O)NC(C)(C)C)nc2n1

>  <CLASSIFICATION>
NO

$$$$
>  <COMPOUND>
O=C(Nc1ccc(OCc2nnc(-c3ccccc3)o2)c(F)c1)Nc1ccc(Cl)c(C(F)(F)F)c1

>  <CLASSIFICATION>
NO

$$$$
>  <COMPOUND>
O=C1CC[C@H](c2ccc(O)c3c2C(=O)[C@@H]2O[C@@H]2C3=O)c2cccc(O)c21

>  <CLASSIFICATION>
NO

$$$$
>  <COMPOUND>
O=C(NCCNc1nccc(-c2c(-c3ccc(F)cc3)nc3sccn23)n1)c1ccccc1

>  <CLASSIFICATION>
NO

$$$$
>  <COMPOUND>
COc1cc(/C=C2\C(=O)N(c3ccccc3)c3ccccc32)cc(OC)c1OC

>  <CLASSIFICATION>
NO

$$$$
>  <COMPOUND>
Clc1ccc(C2=NN[C@H](c3cn(-c4ccccc4)nc3-c3ccccc3)C2)cc1

>  <CLASSIFICATION>
NO

$$$$
>  <COMPOUND>
Cc1sc(NC2=NC(=O)/C(=C\c3ccccc3)S2)nc1-c1nc(NC2=NC(=O)/C(=C\c3ccccc3)S2)sc1C

>  <CLASSIFICATION>
NO

$$$$
>  <COMPOUND>
COc1ccc2c(c1)/C(=C\c1c(Cl)n(C)c3ccccc13)C(=O)N2

>  <CLASSIFICATION>
YES

$$$$
>  <COMPOUND>
Cc1cc2cc3cc(C)c(N)cc3[n+](C)c2cc1N

>  <CLASSIFICATION>
NO

$$$$
>  <COMPOUND>
O=C1/C(=C/c2ccccc2F)CN(C(=O)C(Cl)Cl)C/C1=C\c1ccccc1F

>  <CLASSIFICATION>
YES

$$$$
>  <COMPOUND>
COc1nc(N)nc2c1ncn2[C@@H]1O[C@H](CO)[C@@H](O)[C@@H]1O

>  <CLASSIFICATION>
NO

$$$$
>  <COMPOUND>
O=C(NCCNc1nccc(-c2c(-c3cccc(O)c3)nc3sccn23)n1)Nc1cccc(C(F)(F)F)c1

>  <CLASSIFICATION>
NO

$$$$
>  <COMPOUND>
CCN(CC)CCCC(Cc1ccccc1)Nc1c2ccc(Cl)cc2nc2ccc(OC)cc12 (configuration not stated)

>  <CLASSIFICATION>
NO

$$$$
>  <COMPOUND>
O=C(O)c1c[nH]c2c(OCc3ccccc3)c3ccccc3c(O)c2c1=O

>  <CLASSIFICATION>
NO

$$$$
>  <COMPOUND>
CCCC1=C(C(=O)OCC)C(c2ccccc2OC)C(C#N)=C(N)O1 (configuration not stated)

>  <CLASSIFICATION>
NO

$$$$

###

# System: KM20L2 colon
# TEST NAME: NCI tumour cell line growth inhibition, 48 h

>  <COMPOUND>
CC(C)NC(=O)OCc1c(COC(=O)NC(C)C)c(-c2ccc(Cl)c(Cl)c2)n2c1CCC2

>  <UNIT NAME>
µM

>  <RELATION SYMBOL>
=

>  <TGI>
58.7

$$$$
>  <COMPOUND>
CCC[CH2][Sn]1([CH2]CCC)[O]CC(CN2CCOCC2)[O]1 (stereo not given)

>  <UNIT NAME>
µM

>  <RELATION SYMBOL>
=

>  <TGI>
19.1

$$$$
>  <COMPOUND>
Brc1ccccc1C=NC12CC3CC(CC(C3)C1)C2

>  <UNIT NAME>
µM

>  <RELATION SYMBOL>
>

>  <TGI>
100

$$$$
>  <COMPOUND>
CC(=O)OC1CC2C(C)(C)C(=O)C=C[C@]2(C)C2CCC3(C)C(c4ccoc4)[C@@H](O)[C@H]4O[C@]43[C@]12C (stereo not given in full)

>  <UNIT NAME>
µM

>  <RELATION SYMBOL>
=

>  <TGI>
33.4

$$$$
>  <COMPOUND>
CCOC(=O)C(=O)Nc1c(CC)cccc1C(C)CC (stereo not given)

>  <UNIT NAME>
µM

>  <RELATION SYMBOL>
>

>  <TGI>
100

$$$$
